Provenance of the data: patent US5786447A

Positions of bridges follow the written chain, without caps; N, C: chain ends. Non-standard residues stand in square brackets, D forms with d. Residues, ends and D or L forms follow the SMILES beside them. 2Nal = N[C@@H](Cc1ccc2ccccc2c1)C(=O)O; dOrn = NCCC[C@@H](N)C(=O)O; NMeAib = CNC(C)(C)C(=O)O
What follows is a collection of pKi values obtained with δ opioid receptor (Rattus norvegicus).
Sequence (P33533 whole entry): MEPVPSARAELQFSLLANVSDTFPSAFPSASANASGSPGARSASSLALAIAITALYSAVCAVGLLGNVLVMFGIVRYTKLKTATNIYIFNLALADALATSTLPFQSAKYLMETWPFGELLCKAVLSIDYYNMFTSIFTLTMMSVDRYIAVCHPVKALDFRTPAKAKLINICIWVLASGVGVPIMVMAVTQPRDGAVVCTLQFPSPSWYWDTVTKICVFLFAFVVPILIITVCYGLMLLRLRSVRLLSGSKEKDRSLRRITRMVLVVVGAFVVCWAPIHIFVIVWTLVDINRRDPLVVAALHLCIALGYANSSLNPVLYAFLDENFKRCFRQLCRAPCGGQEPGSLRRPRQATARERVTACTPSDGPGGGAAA
Recall that pKi is obtained by taking minus log10 of the concentration measured in molar.

Examples with their reported pKi follow.
# compound, assayTarget, pKi
rows = [
    ("CN1CC(=O)NCCC[C@@H](NC(=O)[C@@H](N)Cc2ccc(O)cc2)C(=O)N[C@@H](Cc2ccc3ccccc3c2)C(=O)N2CCC[C@@H]2C1=O [Example 2, H-Tyr-c[-D-Orn-2-Nal-D-Pro-Sar-]] (HELM PEPTIDE1{Y.[O=C([C@@H](CCCN[*:3])N[*:1])[*:2]].[O=C([C@H](Cc1ccc2ccccc2c1)N[*:1])[*:2]].[dP].[Sar]}$PEPTIDE1,PEPTIDE1,2:R3-5:R2$$$V2.0)", "δ opioid receptor (Rattus norvegicus)", 8.62),
    ("N[C@@H](Cc1ccc(O)cc1)C(=O)N[C@@H]1CCCCNC(=O)CNC(=O)[C@H]2CCCN2C(=O)[C@H](Cc2ccc3ccccc3c2)NC1=O [H-Tyr-c[-D-Lys-2-Nal-D-Pro-Gly-], reference compound] (HELM PEPTIDE1{Y.[dK].[O=C([C@H](Cc1ccc2ccccc2c1)N[*:1])[*:2]].[dP].G}$PEPTIDE1,PEPTIDE1,2:R3-5:R2$$$V2.0)", "δ opioid receptor (Rattus norvegicus)", 7.20),
    ("CN[C@@H](Cc1ccc(O)cc1)C(=O)N[C@@H]1CCCNC(=O)CNC(=O)[C@H]2CCCN2C(=O)[C@H](Cc2ccc3ccccc3c2)NC1=O [Example 1, Tyr(NMe)-c[-D-Orn-2-Nal-D-Pro-Gly-]] (HELM PEPTIDE1{[meY].[O=C([C@@H](CCCN[*:3])N[*:1])[*:2]].[O=C([C@H](Cc1ccc2ccccc2c1)N[*:1])[*:2]].[dP].G}$PEPTIDE1,PEPTIDE1,2:R3-5:R2$$$V2.0)", "δ opioid receptor (Rattus norvegicus)", 8.89),
    ("N[C@@H](Cc1ccc(O)cc1)C(=O)N[C@@H]1CCCNC(=O)CNC(=O)[C@H]2CCCN2C(=O)[C@H](Cc2ccc3ccccc3c2)NC1=O [H-Tyr-c[-D-Orn-2-Nal-D-Pro-Gly-], reference compound] (HELM PEPTIDE1{Y.[O=C([C@@H](CCCN[*:3])N[*:1])[*:2]].[O=C([C@H](Cc1ccc2ccccc2c1)N[*:1])[*:2]].[dP].G}$PEPTIDE1,PEPTIDE1,2:R3-5:R2$$$V2.0)", "δ opioid receptor (Rattus norvegicus)", 7.76),
]

As a next step, examine the compound that follows.
Form field pKi for item CN1C(=O)[C@H]2CCCN2C(=O)[C@H](Cc2ccc3ccccc3c2)NC(=O)[C@H](NC(=O)[C@@H](N)Cc2ccc(O)cc2)CCCNC(=O)C1(C)C [Example 7, H-Tyr-c[-D-Orn-2-Nal-D-Pro-MeAib-]] (H-Y[dOrn][2Nal][dP][NMeAib]; lactam 2-C) on δ opioid receptor (Rattus norvegicus): 7.97

---

Positions of bridges follow the written chain, without caps; N, C: chain ends. Non-standard residues stand in square brackets, D forms with d. Residues, ends and D or L forms follow the SMILES beside them. 2Nal = N[C@@H](Cc1ccc2ccccc2c1)C(=O)O; Dmt = Cc1cc(O)cc(C)c1C[C@H](N)C(=O)O; dOrn = NCCC[C@@H](N)C(=O)O
What follows is a collection of pKi values obtained with UniProt P33533.
Recall that pKi is obtained by taking minus log10 of the concentration measured in molar.

# molecule, pKi
measured = [
    ("Cc1cc(O)cc(C)c1C[C@H](N)C(=O)N[C@@H]1CCCNC(=O)CNC(=O)[C@H]2CCCN2C(=O)[C@H](Cc2ccc3ccccc3c2)NC1=O [Example 3, H-Dmt-c[-D-Orn-2-Nal-D-Pro-Gly-]] (H-[Dmt][dOrn][2Nal][dP]G; lactam 2-C)", 9.34),
]

As a next step, examine the molecule that follows.
Record C[C@H]1NC(=O)[C@H]2CCCN2C(=O)[C@H](Cc2ccc3ccccc3c2)NC(=O)[C@H](NC(=O)[C@@H](N)Cc2ccc(O)cc2)CCCNC1=O [Example 5, H-Tyr-c[-D-Orn-2-Nal-D-Pro-D-Ala-]] (HELM PEPTIDE1{Y.[O=C([C@@H](CCCN[*:3])N[*:1])[*:2]].[O=C([C@H](Cc1ccc2ccccc2c1)N[*:1])[*:2]].[dP].[dA]}$PEPTIDE1,PEPTIDE1,2:R3-5:R2$$$V2.0) . Reported pKi: 9.12
